experiment: fluorescence interference in NS3h assay format, artefact control for HCV NS3 helicase inhibitor project, biochemical, NIH Clinical Collection (AID 743272); settings: fluorescence interference counterscreen, active compounds read low;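 also: HCV NS3 helicase with a Cy5 labelled single stranded DNA probe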
measuredEndpoint: fluorescence ratio
Keep the answer to the number alone.

# compound, recordedResult
rows = [
    ("CC1=NS(=O)(=O)c2cc(Cl)ccc2N1", 0.99),
    ("COc1cc2nc(N(C)CCCNC(=O)C3CCCO3)nc(N)c2cc1OC (centres undefined)", 1.02),
    ("CC(C[N+](C)(C)C)OC(N)=O (centres undefined)", 1.01),
]

Moving on to the next compound.
Fill in reported fluorescence ratio for this entry: O=C(O)c1cccnc1
0.99
